Biological target: 5-hydroxytryptamine receptor 4 (Cavia porcellus)
Assay: Displacement of [3H]-GR113808 from guinea pig brain 5HT4 receptor at 0.01 uM in presence of serotonin incubated for 30 mins
Format: tissue-based
Label rule met when inhibition is at or above 20%; otherwise label rule not met.

Quick check, inhibition >= 20%? COc1ccc(S(=O)(=O)N2CCC(CCC(=O)c3cc(Cl)c(N)cc3OC)CC2)cc1 rule not met

Could you please find out whether COc1ccc(S(=O)(=O)NCCN2CCC(CCC(=O)c3cc(Cl)c(N)cc3OC)CC2)cc1Br has inhibition that meets 20% or exceeds it? rule met

Test whether the compound COc1ccc(S(=O)(=O)NCCN2CCC(CCC(=O)c3cc(Cl)c(N)cc3OC)CC2)cc1OC records inhibition of 20% or higher. rule met

Check if inhibition >= 20% (inclusive). Item: COc1cc(N)c(Cl)cc1C(=O)CCC1CCN(CCNS(=O)(=O)c2ccc3c(c2)N(C)CCO3)CC1 rule not met

Textbook exercise: given the entry COc1ccc(S(=O)(=O)NCCN2CCC(CCC(=O)c3cc(Cl)c(N)cc3OC)CC2)c(OC)c1 , state whether its inhibition is greater than or equal to 20%. rule not met

Answer whether inhibition of COc1ccc(S(=O)(=O)CCCN2CCC(CCC(=O)c3cc(Cl)c(N)cc3OC)CC2)cc1 is greater than or equal to 20%. rule not met

Hi, just wondering whether COc1cc(N)c(Cl)cc1C(=O)CCC1CCN(CCNS(=O)(=O)c2ccc3c(c2)NC(=O)CO3)CC1 shows inhibition of 20% or higher. rule met

====

Target: 5-hydroxytryptamine receptor 6 (Homo sapiens)
Test: Displacement of [3H]-LSD from human 5-HT6 receptor expressed in HEK293 cells in presence of serotonin incubated for 60 mins
Type: cell-based
Conditions: read-out: Ki
Quick reference: pKi of the listed items.
When answering, recall that pKi equals minus log10 of the concentration in mol/L, and write that number alone.

Known pKi results, listed for orientation:
Chemical Structure: COc1ccc(S(=O)(=O)NCCN2CCC(CCC(=O)c3cc(Cl)c(N)cc3OC)CC2)cc1Br
pKi: 6.83

Chemical Structure: COc1cc(N)c(Cl)cc1C(=O)CCC1CCN(CCNS(=O)(=O)c2ccc(NC(C)=O)cc2)CC1
pKi: 6.08

Chemical Structure: COc1cc(N)c(Cl)cc1C(=O)CCC1CCN(CCNS(=O)(=O)c2cc(Br)c(N)c(Br)c2)CC1
pKi: 6.85

Chemical Structure: COc1cc(N)c(Cl)cc1C(=O)CCC1CCN(CCNS(=O)(=O)c2ccc(N)c(Br)c2)CC1
pKi: 6.66

Now turn to the next molecule.
Name the recorded pKi of the item COc1ccc(S(=O)(=O)NCCN2CCC(CCC(=O)c3cc(Cl)c(N)cc3OC)CC2)cc1Cl in your answer. 6.80

====

Biological target: 5-hydroxytryptamine receptor 2A (Homo sapiens, UniProt P28223)
Sequence (P28223 whole entry): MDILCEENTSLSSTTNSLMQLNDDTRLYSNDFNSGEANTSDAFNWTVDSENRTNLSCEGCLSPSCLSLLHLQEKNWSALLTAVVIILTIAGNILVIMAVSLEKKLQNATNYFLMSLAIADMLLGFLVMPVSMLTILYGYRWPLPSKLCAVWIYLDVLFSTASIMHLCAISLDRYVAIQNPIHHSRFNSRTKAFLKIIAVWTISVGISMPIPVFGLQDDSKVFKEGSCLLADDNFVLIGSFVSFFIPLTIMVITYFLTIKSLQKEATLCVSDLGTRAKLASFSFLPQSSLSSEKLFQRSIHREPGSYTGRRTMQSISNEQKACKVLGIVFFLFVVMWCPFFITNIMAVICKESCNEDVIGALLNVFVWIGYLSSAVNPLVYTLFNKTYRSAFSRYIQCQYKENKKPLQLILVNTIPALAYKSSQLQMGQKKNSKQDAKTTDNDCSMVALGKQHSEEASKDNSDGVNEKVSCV
Assay: Displacement of [3H]ketanserin human recombinant 5-HT2A receptor after 60 mins by scintillation counting analysis relative to control
Measured Property: pKi
Bear in mind: pKi is minus log10 of a mol/L concentration; give just that figure.

Provide pKi value for the following molecule: COc1cc(N)c(Cl)cc1C(=O)CCC1CCN(CCNS(=O)(=O)c2ccc(N)c(Br)c2)CC1 6.48

====

Molecular target: 5-hydroxytryptamine receptor 6 (Homo sapiens, UniProt P50406)
Sequence (P50406 whole entry): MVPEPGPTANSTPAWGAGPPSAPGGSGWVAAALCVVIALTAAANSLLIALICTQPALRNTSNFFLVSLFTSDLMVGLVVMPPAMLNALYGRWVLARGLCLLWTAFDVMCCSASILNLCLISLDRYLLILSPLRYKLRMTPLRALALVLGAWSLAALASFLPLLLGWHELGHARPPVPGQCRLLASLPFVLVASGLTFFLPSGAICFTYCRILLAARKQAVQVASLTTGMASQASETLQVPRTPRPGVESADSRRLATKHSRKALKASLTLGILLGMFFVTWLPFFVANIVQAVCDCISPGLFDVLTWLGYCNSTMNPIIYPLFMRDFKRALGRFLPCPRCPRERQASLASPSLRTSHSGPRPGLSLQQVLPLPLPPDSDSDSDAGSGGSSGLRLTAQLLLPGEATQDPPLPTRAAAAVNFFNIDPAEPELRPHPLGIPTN
Assay: Displacement of [3H]-LSD from human 5-HT6 receptor expressed in HEK293 cells at 1 uM in presence of serotonin incubated for 60 mins
Format: cell-based
Conditions: filed as antagonist
Cut-off 50% on inhibition, inclusive. At or above means y; below means n.

Chemical Structure: COc1cc(N)c(Cl)cc1C(=O)CCC1CCN(CCNS(=O)(=O)c2ccc(N)c(Br)c2)CC1
Qualitative Label: y
//
Chemical Structure: COc1cc(N)c(Cl)cc1C(=O)CCC1CCN(CCNS(=O)(=O)c2ccc(NC(C)=O)cc2)CC1
Qualitative Label: y
//
Chemical Structure: COc1ccc(S(=O)(=O)NCCN2CCC(CCC(=O)c3cc(Cl)c(N)cc3OC)CC2)cc1OC
Qualitative Label: y

Next item in the queue.
Confirm if inhibition reported for the compound COc1ccc(S(=O)(=O)NCCN2CCC(CCC(=O)c3cc(Cl)c(N)cc3OC)CC2)cc1Cl is 50% or above. y
